- System: CEM cells HIV-1 protection, formazan growth assay
- test_details: NCI AIDS Antiviral Assay
pEC50: −log10 of the molar value.
test_readout: pEC50

# count of solved cases: 5
molecule: NC1=C(O)/C(=N/NS(=O)(=O)c2ccccc2)C(c2ccc3c(c2)OCO3)O1 (centres undefined)
test_readout: pEC50
result: < 5.43

molecule: CC12Nc3ccccc3C1=C(c1ccccc1)CC1C(=O)OC(=O)C12 (centres undefined)
test_readout: pEC50
result: < 4.80

molecule: O=c1cc(N2CCN(c3cc(=O)n4ccccc4n3)CC2)oc2ccccc12
test_readout: pEC50
result: < 3.70

molecule: Cc1cc(C)nc(NS(=O)(=O)c2ccc(Nc3c4ccccc4nc4c(C(=O)Nc5ccc(S(=O)(=O)Nc6cc(C)on6)cc5)ccc(Cl)c34)cc2)n1
test_readout: pEC50
result: < 4.33

molecule: Cc1cn(C2CC(N=[N+]=[N-])C(COC(=O)[C@@]3(O)CC[C@H]4[C@@H]5CCC6=CC(=O)CC[C@]6(C)[C@H]5C(O)C[C@@]43C)O2)c(=O)[nH]c1=O (some centres undefined)
test_readout: pEC50
result: 4.57

Q. Return pEC50 (reported value) for this molecule: N#C/C(=C/NC(=S)Nc1ccc(S(N)(=O)=O)cc1)C(N)=O
A. < 3.70

Q. Return pEC50 (reported value) for this molecule: Cc1[nH]c(=O)nc2nc3cc(Cl)cc(Cl)c3c(NC(C)(CO)CO)c12
A. < 3.70

Q. Return pEC50 (reported value) for this molecule: CCn1c(=O)c2c3ccc(OC)cc3[nH]c2c2ccc(OC)cc21
A. < 3.70

Q. Return pEC50 (reported value) for this molecule: CC(C)C(OC(=O)c1ccc(NCc2cc(O)ccc2O)cc1)C(C)C
A. < 3.70

* * *

- System: CEM cells HIV-1 protection, formazan growth assay
- test_details: NCI AIDS Antiviral Assay
- recorded_conditions: measured here: growth of uninfected CEM cells
The following compounds are listed with their measured IC50 values.
Please give a number only; it is taken to be in µM.

# count of solved cases: 5
compound: CCC1(CC=C(C)C)Oc2cccnc2-n2cccc2C1=O (stereo unspecified)
uom: µM
numeric_value: 117

compound: COc1ccc(-c2cc(=O)c3c(OC)c(OC)c(OC)c(OC)c3o2)c(OC)c1
uom: µM
numeric_value: 20.4

compound: COc1cc(/C=C2/SC(c3ccccc3)N(c3ccccc3)C2=O)cc(OC)c1OC (stereo unspecified)
uom: µM
numeric_value: 4.47

compound: Nc1nc(NNc2ccccc2F)cc(=O)[nH]1
uom: µM
numeric_value: 28.2

compound: COc1cc(OC)cc(N(C)Cc2cnc3nc(N)nc(N)c3c2C)c1
uom: µM
numeric_value: 0.138

Q. Specify the recorded IC50 for COc1cccc(/C=C2\SC(=S)N(/C=C(/C#N)C(N)=O)C2=O)c1O , system: CEM cells HIV-1 protection, formazan growth assay.
A. 112

Q. Specify the recorded IC50 for COC1/C=C/OC2(C)Oc3c(C)c(O)c4c(O)c(cc(OCC(=O)N5CC(C)(C)C5)c4c3C2=O)NC(=O)/C(C)=C/C=CC(C)C(O)C(C)C(O)C(C)C(OC(C)=O)C1C (stereo unspecified) , system: CEM cells HIV-1 protection, formazan growth assay.
A. 26.9

Q. Specify the recorded IC50 for NCCN(CCN(C(=O)Nc1ccccc1)c1ccccc1)C(=O)Nc1ccccc1 , system: CEM cells HIV-1 protection, formazan growth assay.
A. 35.5

Q. Specify the recorded IC50 for CCOC1OC(c2ccccc2)=NS(=O)(=O)C1(C)C (stereo unspecified) , system: CEM cells HIV-1 protection, formazan growth assay.
A. 513

Q. Specify the recorded IC50 for Cc1ccc2c(c1)C(=O)/C(=N/Nc1ccc(Cl)cc1)CCO2 , system: CEM cells HIV-1 protection, formazan growth assay.
A. 110

Q. Specify the recorded IC50 for Cc1cc(Sc2cc(C)c(O)c(C(C)(C)C)c2)cc(C(C)(C)C)c1O , system: CEM cells HIV-1 protection, formazan growth assay.
A. 15.8

Q. Specify the recorded IC50 for COC1/C=C/OC2(C)Oc3c(C)c(O)c4c(O)c(c(/C=N/Nc5ncccn5)c(O)c4c3C2=O)NC(=O)C(C)=C/C=C/C(C)C(O)C(C)C(O)C(C)C(OC(C)=O)C1C (stereo unspecified) , system: CEM cells HIV-1 protection, formazan growth assay.
A. 9.12

Q. Specify the recorded IC50 for COc1cc(NCCN2CCN(CCNc3cc(OC)cc4cccnc34)CC2)c2ncccc2c1 , system: CEM cells HIV-1 protection, formazan growth assay.
A. 45.7

Q. Specify the recorded IC50 for CCOC(=O)c1cnc2c(cnn2CC)c1NN=C(C)C , system: CEM cells HIV-1 protection, formazan growth assay.
A. 117

Q. Specify the recorded IC50 for Cc1ccc([N+](=O)[O-])cc1NC(=O)Nc1onc(C)c1C , system: CEM cells HIV-1 protection, formazan growth assay.
A. 9.77

Q. Specify the recorded IC50 for CC1(C)C(=O)C(C(Cl)(Cl)Cl)=C(Cl)C(=O)C1(Cl)Cl , system: CEM cells HIV-1 protection, formazan growth assay.
A. 25.7

Q. Specify the recorded IC50 for Nc1nc(Cl)c(CO)c(NCC2(CO)CC(CCc3ccccc3)C2)n1 (stereo unspecified) , system: CEM cells HIV-1 protection, formazan growth assay.
A. 0.129

Q. Specify the recorded IC50 for CCN(CC)CCN1C(=O)CN=C(c2ccccn2)c2cc(Cl)ccc21 , system: CEM cells HIV-1 protection, formazan growth assay.
A. 240

Q. Specify the recorded IC50 for CCN(CC)CCCNc1nc2ccccc2c2c1ncn2CC(C)C , system: CEM cells HIV-1 protection, formazan growth assay.
A. 41.7

Q. Specify the recorded IC50 for COC(=O)/C=C1\C(CO[Si](C)(C)C(C)(C)C)OC(n2cc(C)c(=O)[nH]c2=O)C1O[Si](C)(C)C(C)(C)C (stereo unspecified) , system: CEM cells HIV-1 protection, formazan growth assay.
A. 7.08

Q. Specify the recorded IC50 for NCCCNCc1c2ccccc2c(CNCCCN)c2ccccc12 , system: CEM cells HIV-1 protection, formazan growth assay.
A. 1.95
